MEASURED_ENDPOINT: melting point

The compound identified as Cc1ccc(C2c3c(C)c(N4CCN(c5ccc(F)cc5)CC4)c(C)c(C)c3OC2(C)C)cc1 (centres undefined) registered its melting point at 159 to 162 °C

Recorded result, "CN1CC=C(c2c[nH]c3cc(Cl)c(Cl)cc23)CC1" , melting point: 255 to 257 °C

In plain terms, COc1ccc(C2=C(C#N)C(c3cccc4nonc34)c3c[nH]nc3N2)cc1 (centres undefined) has a documented melting point of 244 °C

// recorded melting point for "O=C(/C=C/C=C/c1ccc(Cl)cc1)NCCCC(=O)NO" : 164 to 166 °C

For this compound ( "COC(=O)C1CCN(c2ccc3nc4[nH]c(=O)[nH]c4cc3c2)CC1" ), measured melting point is > 310 °C

Lab book: melting point of "O=S(=O)(Cl)c1cccc2c(I)cccc12" noted as 113 to 114 °C

The reported value for "CC(=O)OCc1ccc2cc(C(=O)O)ccc2c1" in terms of melting point is 180 to 190 °C

melting point for "N#CNc1nccc(Oc2ccc(NC(=O)c3cc(F)cc(N4CCCCC4)c3)c3ccccc23)n1" is 160 to 162 °C

Entry under test: N#Cc1cc(F)ccc1-c1cncc(OC2SCC(O)C(O)C2O)c1 (centres undefined) . Its melting point was 198 to 200 °C

Recorded melting point (compound "COC(=O)N(C1c2ccccc2-c2ccccc21)[C@H]1[C@H](C(=O)O)C[C@H]2C[C@@H]1C2(C)C" ): 155 to 157 °C

Reported melting point of "O=C1CCC(c2ccc3[nH]c(-c4cccnc4)cc3c2)=NN1" : 298 to 300 °C

The recorded melting point for entry "COCCCn1nnnc1-c1cc(-c2cccc(C)c2)c(O)cc1O" equals 137 to 140 °C

Short answer for "COC(=O)CCCc1cc2nc(Cl)ccc2n1S(=O)(=O)c1cccc(N(C)C)c1" : melting point was 96 to 97 °C

Per the record, "O=C(c1cccs1)c1cnn2c(-c3cccc(-c4nnn(Cc5ccncc5)n4)c3)ccnc12" has melting point of 170 °C

Quick note, melting point for "Cc1cnc2c(C#N)cnn2c1-c1cccc(C(F)(F)F)c1" landed at 191 to 193 °C

// recorded melting point for "CCCc1c(OCCCOc2cccnc2CCC(=O)OC)ccc(C(C)=O)c1O" : 85 to 87 °C

Form: compound = "CCCCN1C(=O)NC(=Cc2cc(OC)c(OC)cc2OC)C1=O" ; melting point = 170 °C

Entry CCOC1CC2(C)C(CCC3C4CCC(C(C)=O)C4(C)CC(NCCC(C)C)C32)CC1O (centres undefined) , melting point reported as 110 to 112 °C

What the record says about "O=C(O)CCCSC(=S)NCCCc1ccc(Cl)cc1" : melting point is 98 to 100 °C

Item: "CNC(=O)Oc1ccc(SC)c2c1CCCC2" | melting point: 146 to 147 °C

For this compound ( "Cc1cn(NCc2cc(C(C)(C)C)c(O)c(C(C)(C)C)c2)cn1" ), measured melting point is 150 to 151 °C

Entry "COC(=O)c1cc2cc(OC)c(OC)cc2c(-c2ccncc2)c1C(=O)OC" , melting point reported as 196 to 198 °C

The reported melting point of the compound "Cc1cc(C#N)cc(C(=O)Nc2ccc(C#N)cn2)n1" was 279 °C

Note to self: melting point recorded for "CCOC(=O)c1cnc2c(C(=O)Nc3cc4cccnc4cc3OC)csc2c1" was 265 to 270 °C

Looking up "CN(C)C(=S)Oc1ccc(C(=O)c2ccccc2C#N)cc1" , I see its melting point listed as 138 °C

response.value for "O=C(N1CCOCC1)N1Cc2c(-c3nc(C4CC4)cs3)ncn2-c2ccccc21" (field: melting point) = 193 to 194 °C

Lab book: melting point of "NS(=O)(=O)c1ncccc1SCCCF" noted as 85 to 86 °C

Per the records, this compound ( "COc1cc(/C=C2\C(=O)NC(=O)\C2=C\c2ccccc2)ccc1OC1CCCC1" ) has melting point equal to 203 to 204 °C

melting point measured on "Nc1c(I)cc(Cl)cc1I" = 127 to 129 °C
